Measured values drawn from PubChem BioAssay (EPA / NIEHS) for this set.

Read-out: matrix metalloproteinase-10 (MMP10), MMP10 (gene 4319)
Test: LTEA_HepaRG_MMP10: Life Technologies and Expression Analysis (LTEA) Assay for matrix metalloproteinase-10 (MMP10) using HepaRG (AID 2283517)
Conditions: mRNA level, 48 h; actives raise or lower the signal
The source made the active and inactive calls. The calls were made as follows: active = hit-call score of the fitted dose curve at least 0.9, where 1 is the maximum; inactive = score below 0.9.
The reply should be one of these categories: active, inactive

{"molecule": "CC(C)N(C(=O)SCC(Cl)=C(Cl)Cl)C(C)C", "class_name": "inactive"}
{"molecule": "CCOP(=O)(NC(C)C)Oc1ccc(SC)c(C)c1 (stereo unspecified)", "class_name": "inactive"}

Exam item: Field: outcome | Entry: `Cc1cc(C2CC2)nc(Nc2ccccc2)n1`
Marked response: inactive

Exam item: Field: outcome | Entry: `S=C1NCCN1`
Marked response: inactive

Exam item: Field: outcome | Entry: `CCc1cccc(CC)c1N(COC)C(=O)CCl`
Marked response: inactive

Exam item: Field: outcome | Entry: `CNc1cnn(-c2cccc(C(F)(F)F)c2)c(=O)c1Cl`
Marked response: inactive

Exam item: Field: outcome | Entry: `Nc1nc(N)nc(NC2CC2)n1`
Marked response: inactive

Exam item: Field: outcome | Entry: FC(F)C(F)(F)OCC(Cn1cncn1)c1ccc(Cl)cc1Cl (stereo unspecified)
Marked response: active

Exam item: Field: outcome | Entry: `CC1=NNC(=O)N(/N=C/c2cccnc2)C1`
Marked response: inactive

Exam item: Field: outcome | Entry: `CCOP(=S)(OCC)Oc1cc(C)nc(C(C)C)n1`
Marked response: inactive

Exam item: Field: outcome | Entry: `CCOP(=S)(OCC)Oc1ccc([N+](=O)[O-])cc1`
Marked response: inactive

Exam item: Field: outcome | Entry: `CC(=NC#N)N(C)Cc1ccc(Cl)nc1`
Marked response: inactive

###

Test: APR_HepG2_MitoMass_72hr: Apredica 72-hour HepG2 Assay for Mitochondrial Mass (AID 2282924);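 also: MitoTracker Red CMXRos stain intensity per cell imaged as mitochondrial mass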
Settings: high-content imaging, actives raise or lower the signal
Protocol: APR_HepG2_72hr is a cell-based, multiplexed-readout assay that uses HepG2, a human liver cell line, with measurements taken at 72 hours after chemical dosing in a 384-well plate.APR_HepG2_MitoMass_72hr is one of 10 assay component(s) measured or calculated from the APR_HepG2_72hr assay. […] This assay endpoint, APR_HepG2_MitoMass_72hr, was analyzed with bidirectional fitting relative to DMSO as the negative control and baseline of activity. […]
Activity calls are given as the source filed them. The calls were made as follows: active = hit-call score of the fitted dose curve at least 0.9, where 1 is the maximum; inactive = score below 0.9.
The reply should be one of these categories: active, inactive

As a guide, the following entries are already answered.
{"compound": "Nc1nc(N)nc(NC2CC2)n1", "class_name": "inactive"}
{"compound": "CC(C)=CC1C(C(=O)OCN2C(=O)C3=C(CCCC3)C2=O)C1(C)C (stereo not drawn)", "class_name": "inactive"}
{"compound": "CCCSP(=O)(OCC)SCCC", "class_name": "inactive"}
{"compound": "CCOP(=S)(Oc1cnc(C(C)(C)C)nc1)OC(C)C (stereo not drawn)", "class_name": "inactive"}
{"compound": "Cc1ccn2nc(S(=O)(=O)Nc3c(F)cccc3F)nc2n1", "class_name": "inactive"}
{"compound": "CON=C(C(=O)OC)c1ccccc1CON=C(C)c1cccc(C(F)(F)F)c1", "class_name": "inactive"}

Exam item: Field: outcome | Entry: `CNc1cnn(-c2cccc(C(F)(F)F)c2)c(=O)c1Cl`
Marked response: inactive

Exam item: Field: outcome | Entry: `CNC(=O)ON=C(SC)C(=O)N(C)C`
Marked response: active

Exam item: Field: outcome | Entry: `CN(C)NC(=O)CCC(=O)O`
Marked response: inactive

Exam item: Field: outcome | Entry: `O=c1ccc(=O)[nH][nH]1`
Marked response: inactive

Exam item: Field: outcome | Entry: `O=[N+]([O-])c1cc(C(F)(F)F)c(Cl)c([N+](=O)[O-])c1Nc1ncc(C(F)(F)F)cc1Cl`
Marked response: inactive

Exam item: Field: outcome | Entry: `CCOP(=S)(OCC)Oc1ccc([N+](=O)[O-])cc1`
Marked response: inactive

Exam item: Field: outcome | Entry: `CCNc1nc(Cl)nc(NC(C)(C)C#N)n1`
Marked response: inactive

###

Read-out: MYC, MYC (gene 4609)
Test: LTEA_HepaRG_MYC: Life Technologies and Expression Analysis (LTEA) Assay for MYC using HepaRG (AID 2283518)
Settings: mRNA level, 48 h; actives raise or lower the signal
Experimental: LTEA_HepaRG is a cell based, multiplexed-readout assay that uses HepaRG, a human liver cell line, with measurements taken at 48 hours after chemical dosing on a 96-well plate.LTEA_HepaRG_MYC is one of 102 assay component(s) measured in the LTEA HepaRG cell culture assay. It is a marker of Cell proliferation, survival, death.Data from the assay component LTEA_HepaRG_MYC was analyzed into 1 endpoint. […]
Active and inactive are the calls of the source. Rule for the calls: active = hit-call score of the fitted dose curve at least 0.9, where 1 is the maximum; inactive = score below 0.9.
assay_metric: outcome

Example results:
{"molecule": "CCC(CC)Nc1c([N+](=O)[O-])cc(C)c(C)c1[N+](=O)[O-]", "outcome": "inactive"}
{"molecule": "C#CCC1=C(C)C(OC(=O)C2C(C=C(C)C)C2(C)C)CC1=O (stereo not given)", "outcome": "inactive"}
{"molecule": "CCOP(=S)(OCC)SCCSCC", "outcome": "inactive"}
{"molecule": "CN(C)C(=O)Nc1cccc(C(F)(F)F)c1", "outcome": "inactive"}

# evaluate next
Exam item: Could you share which outcome value was measured for `CCCSP(=O)(OCC)SCCC` ?
Marked response: inactive

###

Biological target: zebrafish Estrogen Receptor (ER1), esr1 (gene 259252)
Experiment: ATG_zfER1_XSP2: Attagene TRANS-FACTORIAL Multi-Species (XSP2) HepG2 Assay for zebrafish Estrogen Receptor (ER1) (AID 2283816)
Inconclusive results are not listed. Active and inactive are the calls of the source. The calls were made as follows: active = hit-call score of the fitted dose curve at least 0.9, where 1 is the maximum; inconclusive = response in the unintended direction; inactive = score below 0.9.
assay_metric: outcome

Example results:
{"compound": "C#CCC1=C(C)C(OC(=O)C2C(C=C(C)C)C2(C)C)CC1=O (stereo not given)", "target_or_test_system": "zebrafish Estrogen Receptor (ER1), esr1 (gene 259252)", "outcome": "inactive"}
{"compound": "CCc1cccc(C)c1N(C(=O)CCl)C(C)COC (stereo not given)", "target_or_test_system": "zebrafish Estrogen Receptor (ER1), esr1 (gene 259252)", "outcome": "inactive"}
{"compound": "CCC(=O)Nc1ccc(Cl)c(Cl)c1", "target_or_test_system": "zebrafish Estrogen Receptor (ER1), esr1 (gene 259252)", "outcome": "inactive"}
{"compound": "CCOP(=O)(NC(C)C)Oc1ccc(SC)c(C)c1 (stereo not given)", "target_or_test_system": "zebrafish Estrogen Receptor (ER1), esr1 (gene 259252)", "outcome": "inactive"}

Exam item: Could you share which outcome value was measured for `CCCOCC(=Nc1ccc(Cl)cc1C(F)(F)F)n1ccnc1` ?
Marked response: inactive

###

Assay: Tanguay_ZF_120hpf_PFIN_legacy: (Legacy) Oregon State University Tanguay Lab 120 Hour Post-fertilization zebrafish Assay for Pectoral Fin Malformation (AID 2283648);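 also: each larva judged yes or no for fin defect by brightfield with dead larvae skipped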
Inconclusive results are not listed. Active and inactive are the calls of the source. How the source made its calls: active means hit-call score of the fitted dose curve at least 0.9, where 1 is the maximum; inconclusive means response in the unintended direction; inactive means score below 0.9.
The reply should be one of these categories: Yes = active, No = inactive

{"smiles_repr": "CON=C(C(=O)OC)c1ccccc1CON=C(C)c1cccc(C(F)(F)F)c1", "class_name": "No"}
{"smiles_repr": "CCCCN(CC)c1c([N+](=O)[O-])cc(C(F)(F)F)cc1[N+](=O)[O-]", "class_name": "No"}
{"smiles_repr": "CC1(C(=O)Nc2ccc(O)c(Cl)c2Cl)CCCCC1", "class_name": "No"}
{"smiles_repr": "C[Si](Cn1cncn1)(c1ccc(F)cc1)c1ccc(F)cc1", "class_name": "Yes"}

We now examine a further compound.
Exam item: Field: outcome | Entry: `CN(C)[C@@H]1C(=O)C(C(N)=O)=C(O)[C@@]2(O)C(=O)C3=C(O)c4c(O)cccc4[C@@](C)(O)[C@H]3[C@H](O)[C@@H]12`
Marked response: No

###

Experiment: TOX21_p53_BLA_p4_viability: Viability Assessment in the Tox21 HCT-116 p53 Agonism Beta-lactamase Assay, Phase 4 (AID 2283597);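 also: hits lower the luminescence signal meaning cytotoxicity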
Records with an inconclusive call do not appear. Activity calls are given as the source filed them. Rule for the calls: active = hit-call score of the fitted dose curve at least 0.9, where 1 is the maximum; inconclusive = response in the unintended direction; inactive = score below 0.9.
The reply should be one of these categories: 1 (active), -1 (inactive)

{"compound": "CCOP(=S)(OCC)SCCSCC", "class_name": -1}
{"compound": "CCCCOC(=O)c1ccccc1C(=O)O", "class_name": -1}
{"compound": "S=C1NCCN1", "class_name": -1}

Exam item: Field: outcome | Entry: `Cc1nn(-c2cc(NS(C)(=O)=O)c(Cl)cc2Cl)c(=O)n1C(F)F`
Marked response: -1

Exam item: Field: outcome | Entry: `COP(=O)(OC)SCn1c(=O)oc2cc(Cl)cnc21`
Marked response: -1

Exam item: Field: outcome | Entry: `CCCCN(CC)c1c([N+](=O)[O-])cc(C(F)(F)F)cc1[N+](=O)[O-]`
Marked response: -1

Exam item: Field: outcome | Entry: `CCCCOC(=O)[C@@H](C)Oc1ccc(Oc2ccc(C#N)cc2F)cc1`
Marked response: -1

Exam item: Field: outcome | Entry: `CC(C)[C@H](C(=O)O[C@H](C#N)c1cccc(Oc2ccccc2)c1)c1ccc(Cl)cc1`
Marked response: -1

Exam item: Field: outcome | Entry: FC(F)C(F)(F)OCC(Cn1cncn1)c1ccc(Cl)cc1Cl (stereo unspecified)
Marked response: 1

Exam item: Field: outcome | Entry: CCc1cccc(C)c1N(C(=O)CCl)C(C)COC (stereo unspecified)
Marked response: -1

Exam item: Field: outcome | Entry: CCCSP(=O)(OCC)Oc1ccc(Br)cc1Cl (stereo unspecified)
Marked response: -1
